Test system: OVCAR3 cells
assay-procedure: MTT proliferation assay, OVCAR3;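 note: compound given as an 8- or 10-point series, one day after plating, with exposure covering roughly 3-4 cell doublings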
Assay type: cell-based
test-context: 5 days compound exposure, 1:3 serial dilution starting at 10 μM
*1 amine or outer side, *2 acyl side, *3 side chain or, on linkers, in order; H or OH if unused. Where a SMILES comes first, the peptide text is derived from it. Bridges are numbered along the chain shown (N, C = ends). [ ]: non-standard residue; d: D form. The star is where a group is joined. NMehhhLys(Me) = CN([C@@H](CCCCCCCN(C)[*:3])C(=O)[*:2])[*:1]; X22 = CN([C@@H](Cc1cc(Cl)ccc1-c1cnn(C)c1)C(=O)[*:2])[*:1]; X104 = CN([C@@H](Cc1cc(Cl)ccc1C1=CCOCC1)C(=O)[*:2])[*:1]; cBuCO(3,3-F2-1-CF3) = O=C(C1(C(F)(F)F)CC(F)(F)C1)*; Pro(trans-4-F) = O=C(O)[C@@H]1C[C@@H](F)CN1; X27 = O=C([C@]1(C(F)(F)F)CCCCO1)*; Gly(cPr) = N[C@H](C(=O)O)C1CC1
Provide the recorded GI50 for the entries that follow.
Express your answer in nM, writing the number without its unit.

Fill blank: measured GI50 of the compound CC(C)C[C@@H]1NC(=O)[C@@H](N(C)C(=O)[C@@H](NC(=O)[C@@H]2C[C@@H](F)CN2C(=O)[C@]2(C(F)(F)F)CCCCO2)C2CC2)CCCCCCCN(C)C(=O)[C@H](Cc2cc(Cl)ccc2-c2cnn(C)c2)N(C)C1=O [Example 183] (X27-[Pro(trans-4-F)][Gly(cPr)][NMehhhLys(Me)]L[X22]; lactam 3-C) is ____.
20

Next: `CC(C)C[C@@H]1NC(=O)[C@@H](N(C)C(=O)[C@@H](NC(=O)[C@@H]2C[C@@H](F)CN2C(=O)C2(C(F)(F)F)CC(F)(F)C2)C2CC2)C/C=C\CCCCN(C)C(=O)[C@H](Cc2cc(F)ccc2-c2cnn(S(C)(=O)=O)c2)N(C)C1=O`
10

Next: CC(C)C[C@@H]1NC(=O)[C@@H](N(C)C(=O)[C@@H](NC(=O)[C@@H]2C[C@@H](F)CN2C(=O)C2(C(F)(F)F)CC(F)(F)C2)C2CC2)CCCCCCCN(C)C(=O)[C@H](Cc2cc(Cl)ccc2C2=CCOCC2)N(C)C1=O [Example 51] ({cBuCO(3,3-F2-1-CF3)}-[Pro(trans-4-F)][Gly(cPr)][NMehhhLys(Me)]L[X104]; lactam 3-C)
10
